Exercise: state measured abundance fitness for each of the variants provided.
B1: POU domain, class 2, transcription factor 1, residues 285 to 354; numbered along this chain, P14859 (parent)
chain: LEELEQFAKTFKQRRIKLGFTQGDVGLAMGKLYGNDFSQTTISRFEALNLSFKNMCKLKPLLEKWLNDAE

variants of: B1; assay: abundance fitness (aPCA) (normalised: wild type 0, dead -1); higher = more abundant; growth selection in yeast, the domain comes from the species named; settings: Homo sapiens
The reply should be a number, written without any unit.

# abundance fitness of C56K = -0.201

# abundance fitness of Q22M = -0.134

# abundance fitness of L27M = 0

# abundance fitness of L58I = -0.027

# abundance fitness of D36E = -0.027

# abundance fitness of K59T = -0.033

# abundance fitness of C56W = -0.005

# abundance fitness of F11I = -0.402

# abundance fitness of G30L = -0.015

# abundance fitness of N54S = 0.009

# abundance fitness of E2F = -0.009

# abundance fitness of E70G = -0.13

# abundance fitness of K12W = -0.364

# abundance fitness of L27H = 0.049

# abundance fitness of A28Q = 0.048

# abundance fitness of M55C = -0.12

# abundance fitness of L1W = -0.02

# abundance fitness of R44P = -1.02

# abundance fitness of P60H = -0.094

# abundance fitness of E63W = -0.075

# abundance fitness of F37T = -0.059

# abundance fitness of L61T = -0.026

# abundance fitness of E3S = -0.105

# abundance fitness of M29E = -0.808

# abundance fitness of L62G = -0.545

# abundance fitness of F20C = -0.016

# abundance fitness of F20N = -0.197

# abundance fitness of F11P = -1.04

# abundance fitness of F52S = -0.017

# abundance fitness of L18M = -0.067

# abundance fitness of E2C = -0.152

# abundance fitness of S51T = -0.035

# abundance fitness of D68W = -0.086

# abundance fitness of L27C = 0.039

# abundance fitness of R15P = -1.09

# abundance fitness of K59F = -0.138

# abundance fitness of K64D = -0.037

# abundance fitness of L50S = -0.151

# abundance fitness of K57Y = 0.031

# abundance fitness of L1C = -0.065

# abundance fitness of K53C = 0.015

# abundance fitness of Q22L = -0.001

# abundance fitness of T41K = 0.022

# abundance fitness of T21W = -0.753

# abundance fitness of K31S = -0.068

# abundance fitness of F37S = -0.119

# abundance fitness of K53M = 0.078

# abundance fitness of T40H = -0.035

# abundance fitness of E70K = 0.011

# abundance fitness of R15W = -0.953

# abundance fitness of I16D = -0.2

# abundance fitness of D36H = -0.077

# abundance fitness of F7I = -0.298

# abundance fitness of L61I = -0.097

# abundance fitness of E70V = -0.083

# abundance fitness of L18V = -0.192

# abundance fitness of S38G = 0.023

# abundance fitness of D24R = -0.151

# abundance fitness of K12R = 0.015

# abundance fitness of K17S = -0.003

# abundance fitness of F45L = -0.115

# abundance fitness of R44L = -0.026

# abundance fitness of K57C = 0.005

# abundance fitness of F11E = -1.12

# abundance fitness of T40D = -0.15

# abundance fitness of F52Q = -0.059

# abundance fitness of W65V = -0.262

# abundance fitness of L48W = -0.142

# abundance fitness of A8R = -0.154

# abundance fitness of L66Q = -0.279

# abundance fitness of E3H = -0.036

# abundance fitness of N35T = 0.002

# abundance fitness of G34R = -0.027

# abundance fitness of S43G = -0.156

# abundance fitness of F20W = 0.004

# abundance fitness of Q39E = 0.013

# abundance fitness of K17E = 0.01

# abundance fitness of K31C = -0.12

# abundance fitness of K31I = -0.495

# abundance fitness of K12S = -0.044

# abundance fitness of T41L = -0.023

# abundance fitness of A69H = -0.04

# abundance fitness of T21N = -0.029

# abundance fitness of K31E = 0.058

# abundance fitness of G34D = -0.036

# abundance fitness of D36F = -0.19

# abundance fitness of G30S = -0.019
